# tested.on: VHL-EloC-EloB protein (VCB) (Homo sapiens)
# test.method.notes: ITC binary titration, VCB into PROTAC
# Type: binding
# experimental.context: VCB in syringe, PROTAC in cell
compounds and their reported stoichiometry N

# compound.structure, stoichiometry N
records = [
    ("CC(=O)N1c2ccc(-c3ccc(C(=O)NCCOCCOCC(=O)N[C@H](C(=O)N4C[C@H](O)C[C@H]4C(=O)NCc4ccc(-c5scnc5C)cc4)C(C)(C)C)cc3)cc2[C@H](Nc2ccc(Cl)cc2)C[C@@H]1C", "1.12 ± 0.01"),
]

Next:
Q: // lookup stoichiometry N for Cc1ncsc1-c1ccc(CNC(=O)[C@@H]2C[C@@H](O)CN2C(=O)[C@@H](NC(=O)COCCOCCOCCOCCNC(=O)C[C@@H]2N=C(c3ccc(Cl)cc3)c3c(sc(C)c3C)-n3c(C)nnc32)C(C)(C)C)cc1
Result: 0.76 ± 0.03

====

# tested.on: VCB / Brd4^BD2 ternary complex (Homo sapiens, UniProt O60885+P40337)
# test.method.notes: ITC ternary titration, VCB into Brd4^BD2–PROTAC complex
# Type: binding
# experimental.context: ternary vs binary; Brd4^BD2
assay.endpoint: ΔpKd ± uncertainty
Enter the number alone.

# compound.structure, ΔpKd ± uncertainty
rows = [
    ("Cc1ncsc1-c1ccc(CNC(=O)[C@@H]2C[C@@H](O)CN2C(=O)[C@@H](NC(=O)COCCOCCOCCOCCNC(=O)C[C@@H]2N=C(c3ccc(Cl)cc3)c3c(sc(C)c3C)-n3c(C)nnc32)C(C)(C)C)cc1", 0.66),
]

Q: // lookup ΔpKd ± uncertainty for Cc1ncsc1-c1ccc(CNC(=O)[C@@H]2C[C@@H](O)CN2C(=O)[C@@H](NC(=O)COCCOCCNC(=O)C[C@@H]2N=C(c3ccc(Cl)cc3)c3c(sc(C)c3C)-n3c(C)nnc32)C(C)(C)C)cc1
Result: 0.78

Origin of values: paper PMC5788402
